# Test target: USP7 (Homo sapiens)
# Construct: USP7, construct USP7 (208-1102) 6*His, Viva Biotech; 6xHis (C); purchased Viva Biotech
# Assay info: USP7 Assay A (Ubitquin-Rhodamine 110 Assay)
# Assay type: biochemical
# Run parameters: USP7 activity in USP7 assay A and B (table does not say which assay per compound); read-out: USP7_IC50
Assay metric: IC50

Recorded IC50 for Cc1ccc(-n2ncc3c(=O)n(CC4(O)CCN(C(=O)C[C@@H](C(F)F)n5ccc(F)n5)CC4)cnc32)cc1 [Compound I-797] , please? 1000 to 10000 nM

Need IC50, item O=C(c1cnc(C2CC2)o1)N1CCC(O)(Cn2cnc3c(cnn3-c3ccc(-n4cccn4)cc3)c2=O)CC1 [Compound I-780] < 200 nM

IC50 lookup needed for O=C(c1nnc(C2CC2)o1)N1CCC(O)(Cn2cnc3c(cnn3-c3ccc(Cl)cc3)c2=O)CC1 [Compound I-1091] , thanks. 1000 to 10000 nM

Given the entry CN1CC[C@H](Oc2ccc(-c3ccc(-n4ncc5c(=O)n(CC6(O)CCN(C(=O)C7CC7)CC6)cnc54)cc3)cc2)C1 [Compound I-680] , report its measured IC50. 200 to 1000 nM

* * *

Please provide measured pIC50 for the entries that follow.
# Test target: USP7 (Homo sapiens)
# Construct: USP7, construct USP7 (208-1102) 6*His, Viva Biotech; 6xHis (C); purchased Viva Biotech
# Assay info: USP7 Assay A (Ubitquin-Rhodamine 110 Assay)
# Type: biochemical
# Run parameters: USP7 assay A and B (table does not say which assay per compound); read-out: USP7_IC50
pIC50: −log10 of the molar value.

Form field: reported pIC50 of O=C(Nc1ccc(-n2ncc3c(=O)n(CC4(O)CCN(C(=O)C5CC5)CC4)cnc32)cc1)c1ccccn1 [Compound I-1383] 5.00 to 6.00

For O=C(c1cccn1Cc1ccccc1)N1CCC(O)(Cn2cnc3c(cnn3-c3ccccc3)c2=O)CC1 [Compound I-150] , what is its reported pIC50? > 6.70

So what's the measured pIC50 for this one? C[C@@H](CC(=O)N1CCC(O)(Cn2cnc3c(cnn3-c3ccccc3)c2=O)CC1)n1cccc1 [Compound I-178] 5.00 to 6.00

# query: pIC50 of entry C[C@H](CC(=O)N1CCC(O)(Cn2cnc3c(cnn3-c3ccc(-c4ccc(F)cc4)cc3)c2=O)CC1)n1cccn1 [Compound I-653] 6.00 to 6.70

Endpoint output: pIC50 of C[C@@H](CC(=O)N1CCC(O)(Cn2cnc3c(cnn3-c3ccc(F)cc3)c2=O)CC1)n1ncc2c1CCC2 [Compound I-521] . Value? < 5.00

Look up pIC50: N#CCOc1ccc(-n2ncc3c(=O)n(CC4(O)CCN(C(=O)c5ccc(F)cc5)CC4)cnc32)cc1 [Compound I-1320] 5.00 to 6.00

What value of measured pIC50 is listed for CC(CC(=O)N1CCC(O)(Cn2cnc3c(cnn3-c3ccc(-c4ccc(F)cc4)cc3)c2=O)CC1)n1cccn1 (stereo not drawn) [Compound I-652] ? 6.00 to 6.70

Query (compound): C=CS(=O)(=O)Nc1ccccc1-c1ccc(C(=O)N2CCC(O)(Cn3cnc4c(cnn4C)c3=O)CC2)cc1 [Compound I-45] ; field requested: pIC50 6.00 to 6.70

# query: pIC50 of entry O=C(c1ccc(F)cc1)N1CCC(O)(Cn2cnc3c(cnn3-c3ccc(OCC4CCOCC4)cc3)c2=O)CC1 [Compound I-1324] 5.00 to 6.00

What does the data say about its pIC50? Entry: COc1cccc(-n2ncc3c(=O)n(CC4(O)CCN(C(=O)c5ccc(F)cc5)CC4)cnc32)c1 [Compound I-621] 5.00 to 6.00

Would you mind telling me what pIC50 value was observed for CN(C)C(=O)N1CCC(O)(Cn2cnc3c(cnn3-c3ccc(OCC4CC4)cc3)c2=O)CC1 [Compound I-1289] ? 5.00 to 6.00

Consider the compound O=C(C1CC1)N1CCC(O)(Cn2cnc3c(cnn3-c3ccc(N4CCN5CCCCC5C4)cc3)c2=O)CC1 (stereo not drawn) [Compound I-1584] and give its measured pIC50. 6.00 to 6.70

What pIC50 value was documented for this compound, CS(=O)(=O)c1ccc(-n2ncc3c(=O)n(CC4(O)CCN(C(=O)C5CC5)CC4)cnc32)cc1 [Compound I-31] ? 5.00 to 6.00

Name the recorded pIC50 for O=C(C1CC1)N1CCC(O)(Cn2cnc3c(cnn3-c3ccc(-c4ccccc4)cc3)c2=O)CC1 [Compound I-276] . 5.00 to 6.00

Could you share which pIC50 value was measured for O=C(C1CC1)N1CCC(O)(Cn2cnc3c(cnn3-c3cccc(Nc4ccncc4)c3)c2=O)CC1 [Compound I-1232] ? 5.00 to 6.00

May I ask what pIC50 has been recorded for CC(=O)N1CCN(c2ccc(-n3ncc4c(=O)n(CC5(O)CCN(C(=O)C6CC6)CC5)cnc43)cc2)CC1 [Compound I-1211] ? 5.00 to 6.00

Look at this compound and give its reported pIC50. Cn1ncc2c(=O)n(CC3(O)CCN(C(=O)c4ccc(S(=O)(=O)Nc5ccccc5)cc4)CC3)cnc21 [Compound I-106] 5.00 to 6.00

Recorded pIC50 of Cc1ccc(C(=O)N2CCC(O)(Cn3cnc4c(cnn4-c4ccccc4)c3=O)CC2)cc1Cl [Compound I-211] , please. 6.00 to 6.70

Sample C#CC(=O)NC1CC(C(=O)N2CCC(O)(Cn3cnc4c(cnn4-c4ccc(F)cc4)c3=O)CC2)C1 (stereo not drawn) [Compound I-950] — what was its pIC50? 5.00 to 6.00

Form field: reported pIC50 of O=C(C1CC1)N1CCC(O)(Cn2cnc3c(cnn3-c3ccc(Cl)c(Cl)c3)c2=O)CC1 [Compound I-33] 5.00 to 6.00

Endpoint output: pIC50 of CC(=O)Nc1cccc(C(=O)N2CCC(O)(Cn3cnc4c(cnn4-c4ccccc4)c3=O)CC2)c1 [Compound I-181] . Value? 5.00 to 6.00

* * *

# Test target: USP7 (Homo sapiens, UniProt Q93009)
# Construct: USP7, construct USP7 (208-1102) 6*His, Viva Biotech; 6xHis (C); purchased Viva Biotech
# Sequence (Q93009 208-1102): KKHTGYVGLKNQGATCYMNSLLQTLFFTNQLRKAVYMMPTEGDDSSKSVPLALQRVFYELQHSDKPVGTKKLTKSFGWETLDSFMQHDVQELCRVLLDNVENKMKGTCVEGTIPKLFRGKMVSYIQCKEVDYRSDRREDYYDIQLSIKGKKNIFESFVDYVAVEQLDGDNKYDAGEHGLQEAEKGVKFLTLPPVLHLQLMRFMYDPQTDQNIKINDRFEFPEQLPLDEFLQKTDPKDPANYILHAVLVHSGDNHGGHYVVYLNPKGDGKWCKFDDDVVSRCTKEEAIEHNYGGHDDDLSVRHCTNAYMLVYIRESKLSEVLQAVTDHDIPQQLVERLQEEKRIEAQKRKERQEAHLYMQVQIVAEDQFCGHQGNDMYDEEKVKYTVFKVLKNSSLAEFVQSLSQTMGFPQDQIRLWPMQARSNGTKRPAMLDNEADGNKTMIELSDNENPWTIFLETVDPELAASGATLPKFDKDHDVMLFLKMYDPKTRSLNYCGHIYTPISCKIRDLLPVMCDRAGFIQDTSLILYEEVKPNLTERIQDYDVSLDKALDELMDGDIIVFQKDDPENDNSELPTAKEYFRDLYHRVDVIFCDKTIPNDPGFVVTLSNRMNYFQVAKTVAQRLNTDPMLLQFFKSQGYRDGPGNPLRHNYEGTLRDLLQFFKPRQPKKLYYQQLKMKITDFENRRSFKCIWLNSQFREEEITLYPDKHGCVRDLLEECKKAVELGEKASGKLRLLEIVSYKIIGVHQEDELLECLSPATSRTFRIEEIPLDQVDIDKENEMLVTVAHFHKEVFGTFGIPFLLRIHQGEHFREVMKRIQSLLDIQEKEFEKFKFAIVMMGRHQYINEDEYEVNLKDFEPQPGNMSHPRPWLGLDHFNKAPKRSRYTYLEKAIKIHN
# Assay info: USP7 Assay A (Ubitquin-Rhodamine 110 Assay)
# Format: biochemical
# Run parameters: USP7 activity in USP7 assay A and B (table does not say which assay per compound); read-out: USP7_IC50
Assay metric: IC50

Looking for the measured IC50 of Cc1nnnn1-c1ccc(C(=O)N2CCC(O)(Cn3cnc4c(cnn4-c4ccc(Cl)cc4)c3=O)CC2)cc1 [Compound I-1089] , can you help? 200 to 1000 nM

What value of measured IC50 is listed for CC(=O)N1CC2CC1CN2c1cccc(-n2ncc3c(=O)n(CC4(O)CCN(C(=O)C5(C)CC5)CC4)cnc32)c1 (stereo not shown) [Compound I-1748] ? 200 to 1000 nM

Given the compound O=C(C[C@H](C(F)F)n1ccc(F)n1)N1CCC(O)(Cn2cnc3c(cnn3-c3ccc(C(F)(F)F)cc3)c2=O)CC1 [Compound I-1036] , what is its reported IC50? < 200 nM

What does the record list as IC50 for O=C(C[C@H](C(F)F)n1cccn1)N1CCC(O)(Cn2cnc3c(cnn3-c3ccc(-c4ccccc4)cc3)c2=O)CC1 [Compound I-645] ? 200 to 1000 nM

Query: IC50; subject: CC1(COc2ccc(-n3ncc4c(=O)n(CC5(O)CCN(C(=O)C6(C)CC6)CC5)cnc43)cc2)COC1 [Compound I-1118] < 200 nM

// IC50 lookup, key: CC1(C(=O)N2CCC(O)(Cn3cnc4c(cnn4-c4ccc(N5CC6CC(C5)O6)cc4)c3=O)CC2)CC1 [Compound I-1643] 200 to 1000 nM

Consider the compound O=C(c1ccc(-n2cnnn2)cc1)N1CCC(O)(Cn2cnc3c(cnn3-c3ccc(Cl)cc3)c2=O)CC1 [Compound I-1087] and give its measured IC50. 200 to 1000 nM

IC50 for O=C(C1CCC(OC2CCOCC2)CC1)N1CCC(O)(Cn2cnc3c(cnn3-c3ccc(F)cc3)c2=O)CC1 (stereo not shown) [Compound I-925] ? 1000 to 10000 nM

Would you kindly share the measured IC50 for C[C@@]1(O)CCN(c2ccc(-n3ncc4c(=O)n(CC5(O)CCN(C(=O)C[C@@H](C(F)F)n6cccn6)CC5)cnc43)cc2)C1 [Compound I-836] ? 1000 to 10000 nM

Please report the recorded IC50 for Cn1ccc2c(=O)n(CC3(O)CCN(C(=O)CC(C(F)F)n4ccc(F)n4)CC3)cnc21 (single isomer, unassigned) [Compound I-1695] . < 200 nM

Recorded IC50 of O=C(C1CC1)N1CCC(O)(Cn2cnc3c(cnn3-c3ccc(-c4cnn5ccccc45)cc3)c2=O)CC1 [Compound I-1736] , please. 200 to 1000 nM

Please look up its IC50: Cc1cc(OC2CCN(C(=O)N3CCC(O)(Cn4cnc5c(cnn5-c5ccc(F)cc5)c4=O)CC3)CC2)no1 [Compound I-922] 1000 to 10000 nM

Record request: IC50 value, item O=C(C1CCC(Nc2ccccc2)CC1)N1CCC(O)(Cn2cnc3c(cnn3-c3ccc(F)cc3)c2=O)CC1 (stereo not shown) [Compound I-767] 200 to 1000 nM
